B1: TPR t1 (parent)
chain: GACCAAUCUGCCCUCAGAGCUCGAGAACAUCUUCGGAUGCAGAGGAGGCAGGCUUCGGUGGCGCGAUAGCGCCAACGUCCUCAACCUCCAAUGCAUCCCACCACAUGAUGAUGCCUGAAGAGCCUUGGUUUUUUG

Variants of: B1
Assay: polymerase ribozyme fitness, log enrichment relative to wild type (log ratio); higher = more active; in vitro selection for triplet polymerase activity
measure: polymerase ribozyme fitness (log ratio)

>>> reported_measurement("GACUAAUCUGCCCUCACAGCUCGAGAACAUCUUCGGAUGCAGAGGAGACAGGCUUCGGUGGCGCGAUACCGCCAACGUCCUCAACCUCCAAUGCAUCCCACCACAUGAUGAUGCCUGAACAGCCUUGGUUUUUUG [C4U G17C G48A G69C G120C]")
-4.5
>>> reported_measurement("GACCAAUCUGCCCUCAGAGCUCGAGAACAUCUUCGGAUGCAGAGGAGGAAGGCUUCGGUGGCGCGAUAGCGCCAACGUCCUCAACCCCCAAUGCAUCCCACCACAUGAUGAUGCCUGAAGAGCCUUGGUUUUUUG [C49A U87C]")
0.179
>>> reported_measurement("GACCAAGCUGCCCUCAGAGCUCGAGAACAUCUUCGGAUGCAGAGGAGGCAGGCUUCGGUGGCGCGAUAGCGCCAACGUCCUCAACCUCCAAUGCGUCCCACCACAUGAUGAUGCCUGAAGAGCCUUGGUUUUUUG [U7G A95G]")
0.461
>>> reported_measurement("GACCAAGCUGCCCGCAGAGCUCGAGAACAUCUUGGGAUGCAGAGGAGGCAGGCUUCGGUGGCGCGAUAGCGCCAACGUCCUCAACCUCCAAUGCAUCCCACCACAUGAUGAUGCCUGAAGAGCCUUGGUUUUUUG [U7G U14G C34G]")
-5.56
>>> reported_measurement("GACCAAUCUGCUCUCAGAGCUCGAGAACAUCUUCGGAUGCAGAGGAGGCAAGCUUCGGUGGCGCGAUAGCCCCAACGUUCUCAACCUCCAAUGCAUCCCAACACAUGAUGAUGCCUGAAGAGCCUUGGUUUUUUG [C12U G51A G71C C79U C101A]")
-5.68
>>> reported_measurement("GACCAAUCUGCCCUCAGAGCUCGAGAACAUCUUCGGAUGCAGAGGAGGCAGGCUUCGGUGGCGCGAUAGCGCCAACUUCCUCAACCUCCAUUGCAUCCCACCACAUGAUGAUGCCUGAAGAGCCUUGGUUUUCUG [G77U A91U U133C]")
-1.24
>>> reported_measurement("GACCAAUCUGCCCUCAGAGCUCGAGAACAUCUUCGGAUGCAGAGGAGGCAGGGUUCGGUGGCGCGAUAGCGCCAACAUCCUCAACCUCCAAUGCAUCCCACUACAUGAUGAUGCCUGAACAGCCAUGGUUUUUUG [C53G G77A C102U G120C U125A]")
-2.26
>>> reported_measurement("GACCAAUCUGCCCUCAGAGCUCGAGAACAUCUUCGGAUGCAGAGGAGGCAGGCUUCGGUGGCGCGAUAGCGCCAACGUCCUCAACCUCCAAUCCAUCCCACCACAUGAUGAUGCCUGAAUAGCCUUGGUUUUUUG [G93C G120U]")
-1.78
>>> reported_measurement("GACCAAUCUGCCCUCAGAGCUCGAGAACAUCUUCGGAUGCAGAGGAGGCAGGCUUCGGUGGCGCGUUAGCGCCAACGCCCUCAACCACCAAUGCAUCCCACCACAUGAUGUUGCCUGAAGAGCCUUGGUUUUUUG [A66U U78C U87A A111U]")
-4.73
>>> reported_measurement("GACCAAUCUGCCCUCAGUGAUCGAGAACAUCUUCGGAUGCAGAGGAGGCAGGCUUCGGUGGCGCGAUAGCGCCAACGUCCUCAACCUCCAAUGCAUGCCACCACAUGAAGAUGCCAGAAGAGCCUUGGUUUUUUG [A18U C20A C97G U109A U116A]")
-5.44
>>> reported_measurement("GACCAAUCUGCUCGCAGAGCUCGAGAACAUCCUCGGAUGCAGAGGAGGCAAGCUUUUGUGGCGCGAUAGCGCCAACGUCCUCAACCUCCAAUGCAUCCCACCACAUGAUGAUGCCUGAAGAGCCUUAGUUUUUUG [C12U U14G U32C G51A C56U G57U G127A]")
-5.28
